Taken from patent US10227331B2.

The molecules listed here are annotated with their MIC.
- Test system: MB 5890 Trans pFIp-Vim2 plasd (efflux-)
- Type: cell-based, Pseudomonas aeruginosa
Return type: number; implicit unit µg/mL.

What value of MIC has been reported for the following molecule? C[C@@H](O)[C@H]1C(=O)N2C(C(=O)O)=C(SCCN=CN)C[C@H]12
32

What value of MIC has been reported for the following molecule? C[C@@H](O)[C@H]1C(=O)N2C(C(=O)O)=C(S[C@@H]3CN[C@H](C(=O)N(C)C)C3)[C@H](C)[C@H]12
32

What value of MIC has been reported for the following molecule? CC(C)(O/N=C(\C(=O)N[C@@H]1C(=O)N2C(C(=O)[O-])=C(C[n+]3ccccc3)CS[C@H]12)c1csc(N)n1)C(=O)O
64

New cases:
What value of MIC has been reported for the following molecule? CCN1CCN(C(=O)N[C@@H](C(=O)N[C@@H]2C(=O)N3[C@@H]2SC(C)(C)[C@@H]3C(=O)O)c2ccccc2)C(=O)C1=O
128

* * *

- tgt: VIM-1 (Pseudomonas aeruginosa (strain ATCC 15692 / DSM 22644 / CIP 104116 / JCM 14847 / LMG 12228 / 1C / PRS 101 / PAO1), UniProt A0A0F7KYQ8)
- protocol.notes: biochemical
- condition.set: CCF2-FA substrate, 2 hours at 25° C
The compounds listed here are annotated with their pIC50.
Kindly note that pIC50 refers to -log10 of the concentration in mol/L and answer with the value alone.

What value of pIC50 has been reported for the following compound? NC(=O)c1cn2cccc(-c3ccc(S(=O)(=O)C4CNC4)c(S(N)(=O)=O)c3-c3nnn[nH]3)c2n1 [Example 59]
9.73

* * *

- tgt: NDM-1 (Klebsiella pneumoniae)
- Sequence (C7C422 whole entry, looked up, species assumed): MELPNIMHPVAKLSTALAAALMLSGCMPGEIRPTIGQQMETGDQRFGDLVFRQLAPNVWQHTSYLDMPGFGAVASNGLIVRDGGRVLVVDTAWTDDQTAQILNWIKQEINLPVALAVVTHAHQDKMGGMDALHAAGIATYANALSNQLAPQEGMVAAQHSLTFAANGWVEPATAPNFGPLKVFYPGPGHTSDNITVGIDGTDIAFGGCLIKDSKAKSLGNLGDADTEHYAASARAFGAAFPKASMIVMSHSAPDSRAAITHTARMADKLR
- protocol.notes: biochemical
- Format: biochemical
- condition.set: CCF2-FA substrate, 2 hours at 25° C; read-out: NDM-1 IC50
The compounds listed here are annotated with their IC50.
Return type: number; implicit unit nM.

Known IC50 results, listed for orientation:
# get_value(readout= IC50, system= NDM-1 (Klebsiella pneumoniae)) for Nc1nc2c(-c3ccc(S(=O)(=O)[C@@H]4CCNC4)c(S(N)(=O)=O)c3-c3nn[nH]n3)cccc2s1
0.122

# get_value(readout= IC50, system= NDM-1 (Klebsiella pneumoniae)) for Nc1nc2c(-c3ccc(S(=O)(=O)C4CNC4)c(S(N)(=O)=O)c3-c3nn[nH]n3)ccc(F)c2[nH]1
0.0727

New cases:
# get_value(readout= IC50, system= NDM-1 (Klebsiella pneumoniae)) for CC(=O)Nc1ccc(-c2ccc(S(=O)(=O)CCN)c(S(N)(=O)=O)c2-c2nnn[nH]2)cn1.O=C(O)C(F)(F)F [Example 135, 2,2,2-trifluoroacetate]
0.265

# get_value(readout= IC50, system= NDM-1 (Klebsiella pneumoniae)) for NCCS(=O)(=O)c1ccc(-c2cnc(N)c(F)c2)c(-c2nnn[nH]2)c1S(N)(=O)=O.O=C(O)C(F)(F)F [Example 168, 2,2,2-trifluoroacetate]
2.5

# get_value(readout= IC50, system= NDM-1 (Klebsiella pneumoniae)) for COC(=O)c1cccc(-c2ccc(S(=O)(=O)CCN)c(S(N)(=O)=O)c2-c2nn[nH]n2)c1N
0.556

# get_value(readout= IC50, system= NDM-1 (Klebsiella pneumoniae)) for NS(=O)(=O)c1c(S(=O)(=O)C2CNC2)ccc(-c2cnc3cc[nH]c3c2)c1-c1nn[nH]n1
0.49
